Target: Carbonic anhydrase 5B, mitochondrial (Homo sapiens) (UniProt Q9Y2D0)
Sequence (Q9Y2D0 whole entry): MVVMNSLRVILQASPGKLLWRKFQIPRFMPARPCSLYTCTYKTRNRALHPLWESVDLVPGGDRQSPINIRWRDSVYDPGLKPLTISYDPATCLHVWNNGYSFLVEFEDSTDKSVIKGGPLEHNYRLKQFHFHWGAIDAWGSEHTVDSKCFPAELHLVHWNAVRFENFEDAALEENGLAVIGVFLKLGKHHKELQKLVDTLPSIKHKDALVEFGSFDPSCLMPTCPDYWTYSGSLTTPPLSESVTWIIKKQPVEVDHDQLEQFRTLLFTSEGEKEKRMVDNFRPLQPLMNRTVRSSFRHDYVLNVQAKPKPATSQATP
Details: filed as activator
Description: Binding affinity to human carbonic anhydrase 5B assessed as activation constant by phenol red dye based stopped-flow method
KA: recorded values
quantity-measured: KA (nM)

                          compound_structure  quantity_measured  value_units  reported_value
 0  CC(C)(C)OC(=O)N[C@@H](Cc1c[nH]c2ccccc12)C(=O)NCCCCCCNc1c2c(nc3ccccc13)CCCC2                 KA           nM           24200
 1  N[C@@H](Cc1c[nH]c2ccccc12)C(=O)NCCCCCCNc1c2c(nc3ccccc13)CCCC2                 KA           nM             353
 2  COC(=O)[C@H](CCCCNC(=O)OCc1ccccc1)NCCCCCNc1c2c(nc3ccccc13)CCCC2                 KA           nM            1400
 3  N[C@@H](Cc1c[nH]cn1)C(=O)NCCCCNc1c2c(nc3ccccc13)CCCC2                 KA           nM            1470
 4  CC(C)(C)OC(=O)N[C@@H](Cc1c[nH]c2ccccc12)C(=O)NCCCCNc1c2c(nc3ccccc13)CCCC2                 KA           nM            8640
 5  N[C@@H](Cc1ccccc1)C(=O)NCCCCCCNc1c2c(nc3ccccc13)CCCC2                 KA           nM            4640
 6  N[C@@H](CCCCNC(=O)OCc1ccccc1)C(=O)NCCCCNc1c2c(nc3ccccc13)CCCC2                 KA           nM            1400
 7  N[C@@H](Cc1ccccc1)C(=O)NCCCNc1c2c(nc3ccccc13)CCCC2                 KA           nM             971
 8  COC(=O)[C@H](Cc1c[nH]c2ccccc12)NCCCCCCNc1c2c(nc3ccccc13)CCCC2                 KA           nM            5100
 9  COC(=O)[C@H](Cc1c[nH]cn1)NCCCCCNc1c2c(nc3ccccc13)CCCC2                 KA           nM            2430
10  COC(=O)[C@H](Cc1ccccc1)NCCCCCNc1c2c(nc3ccccc13)CCCC2                 KA           nM            5320
11  CC(C)(C)OC(=O)N[C@@H](Cc1cn(C(=O)OC(C)(C)C)cn1)C(=O)NCCCCCNc1c2c(nc3ccccc13)CCCC2                 KA           nM            9050
12  COC(=O)[C@H](Cc1c[nH]cn1)NCCCCCCNc1c2c(nc3ccccc13)CCCC2                 KA           nM             893
13  COC(=O)[C@@H](N)Cc1ccc(OCCCCCCNc2c3c(nc4ccccc24)CCCC3)cc1                 KA           nM            6160
14  N[C@@H](CCCCNC(=O)OCc1ccccc1)C(=O)NCCCNc1c2c(nc3ccccc13)CCCC2                 KA           nM            4950
15  COC(=O)[C@@H](N)Cc1ccc(OCCCCCNc2c3c(nc4ccccc24)CCCC3)cc1                 KA           nM            1730
16  N[C@@H](Cc1c[nH]c2ccccc12)C(=O)NCCCNc1c2c(nc3ccccc13)CCCC2                 KA           nM            1960

----------
Biological target: Carbonic anhydrase 2 (Homo sapiens) (UniProt P00918)
Conditions: filed as activator
Description: Binding affinity to human carbonic anhydrase 2 assessed as activation constant by phenol red dye based stopped-flow method
KA: recorded values
quantity-measured: KA (µM)

In [3]: df
Out[3]:
                         compound_structure  reported_value
0  COC(=O)[C@@H](N)Cc1ccc(OCCCCCNc2c3c(nc4ccccc24)CCCC3)cc1           0.372
1  COC(=O)[C@H](Cc1c[nH]cn1)NCCCCCCNc1c2c(nc3ccccc13)CCCC2          0.0769
2  CC(C)(C)OC(=O)N[C@@H](Cc1cn(C(=O)OC(C)(C)C)cn1)C(=O)NCCCNc1c2c(nc3ccccc13)CCCC2            15.9
3  CC(C)(C)OC(=O)N[C@@H](Cc1c[nH]c2ccccc12)C(=O)NCCCCNc1c2c(nc3ccccc13)CCCC2            7.65

----------
Biological target: Carbonic anhydrase 7 (Homo sapiens) (UniProt P43166)
Sequence (P43166 whole entry): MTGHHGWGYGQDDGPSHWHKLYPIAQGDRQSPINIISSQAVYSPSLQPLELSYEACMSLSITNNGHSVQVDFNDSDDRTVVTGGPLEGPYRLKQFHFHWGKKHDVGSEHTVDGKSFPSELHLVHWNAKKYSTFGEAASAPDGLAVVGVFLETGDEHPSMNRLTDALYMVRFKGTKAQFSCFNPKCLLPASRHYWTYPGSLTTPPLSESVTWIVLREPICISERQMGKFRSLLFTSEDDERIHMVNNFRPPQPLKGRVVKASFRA
Conditions: filed as activator
Description: Binding affinity to human carbonic anhydrase 7 assessed as activation constant by phenol red dye based stopped-flow method
quantity-measured: KA (nM)

>>> df
                         compound_structure                           target_of_assay  value_units  reported_value
0  N[C@@H](Cc1c[nH]c2ccccc12)C(=O)NCCCNc1c2c(nc3ccccc13)CCCC2  Carbonic anhydrase 7 (Homo sapiens) (UniProt P43166)           nM             566
1  N[C@@H](Cc1c[nH]c2ccccc12)C(=O)NCCCCCCNc1c2c(nc3ccccc13)CCCC2  Carbonic anhydrase 7 (Homo sapiens) (UniProt P43166)           nM            79.8
2  COC(=O)[C@@H](N)Cc1ccc(OCCCCCNc2c3c(nc4ccccc24)CCCC3)cc1  Carbonic anhydrase 7 (Homo sapiens) (UniProt P43166)           nM             803
3  COC(=O)[C@H](Cc1c[nH]c2ccccc12)NCCCCCCNc1c2c(nc3ccccc13)CCCC2  Carbonic anhydrase 7 (Homo sapiens) (UniProt P43166)           nM             637

----------
Target: UniProt P22748
Sequence (P22748 whole entry): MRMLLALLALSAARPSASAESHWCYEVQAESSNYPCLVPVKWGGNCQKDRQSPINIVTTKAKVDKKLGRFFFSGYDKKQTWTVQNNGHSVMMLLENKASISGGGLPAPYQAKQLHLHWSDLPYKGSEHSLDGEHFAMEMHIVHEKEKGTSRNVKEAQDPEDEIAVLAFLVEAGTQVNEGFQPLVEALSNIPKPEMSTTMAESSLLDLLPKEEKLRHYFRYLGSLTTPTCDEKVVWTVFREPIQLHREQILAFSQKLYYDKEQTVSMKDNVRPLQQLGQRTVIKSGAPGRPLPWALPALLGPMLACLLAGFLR
Conditions: filed as activator
Description: Binding affinity to human carbonic anhydrase 4 assessed as activation constant by phenol red dye based stopped-flow method
quantity-measured: log10 KA (log10 of the value in µM)

>>> print(df.to_string())
                          compound_structure  reported_value
 0  c1ccc2c(NCCCCCNCCc3c[nH]cn3)c3c(nc2c1)CCCC3            0.11
 1  N[C@@H](Cc1c[nH]cn1)C(=O)NCCCCCCNc1c2c(nc3ccccc13)CCCC2            0.55
 2  COC(=O)[C@H](CCCCNC(=O)OCc1ccccc1)NCCCCCCNc1c2c(nc3ccccc13)CCCC2            1.31
 3  N[C@@H](Cc1c[nH]c2ccccc12)C(=O)NCCCNc1c2c(nc3ccccc13)CCCC2            0.37
 4  N[C@@H](Cc1c[nH]cn1)C(=O)NCCCCNc1c2c(nc3ccccc13)CCCC2           -0.02
 5  N[C@@H](CCCCNC(=O)OCc1ccccc1)C(=O)NCCCCCNc1c2c(nc3ccccc13)CCCC2            0.56
 6  COC(=O)[C@H](Cc1c[nH]c2ccccc12)NCCCCCCNc1c2c(nc3ccccc13)CCCC2            0.35
 7  COC(=O)[C@H](Cc1ccccc1)NCCCCCCNc1c2c(nc3ccccc13)CCCC2            0.16
 8  COC(=O)[C@H](CCCCNC(=O)OCc1ccccc1)NCCCCCNc1c2c(nc3ccccc13)CCCC2            1.28
 9  N[C@@H](Cc1ccccc1)C(=O)NCCCCCCNc1c2c(nc3ccccc13)CCCC2            0.68
10  N[C@@H](Cc1ccccc1)C(=O)NCCCNc1c2c(nc3ccccc13)CCCC2            0.77
11  N[C@@H](Cc1ccccc1)C(=O)NCCCCNc1c2c(nc3ccccc13)CCCC2            0.88
12  COC(=O)[C@H](Cc1c[nH]cn1)NCCCCCNc1c2c(nc3ccccc13)CCCC2            0.56
13  N[C@@H](CCCCNC(=O)OCc1ccccc1)C(=O)NCCCCNc1c2c(nc3ccccc13)CCCC2            0.99
14  N[C@@H](Cc1c[nH]c2ccccc12)C(=O)NCCCCCNc1c2c(nc3ccccc13)CCCC2            0.24
15  CC(C)(C)OC(=O)N[C@@H](Cc1c[nH]c2ccccc12)C(=O)NCCCCCCNc1c2c(nc3ccccc13)CCCC2            0.65
16  N[C@@H](Cc1c[nH]c2ccccc12)C(=O)NCCCCCCNc1c2c(nc3ccccc13)CCCC2           -0.27
17  COC(=O)[C@@H](N)Cc1ccc(OCCCCCCNc2c3c(nc4ccccc24)CCCC3)cc1            0.92
18  N[C@@H](CCCCNC(=O)OCc1ccccc1)C(=O)NCCCNc1c2c(nc3ccccc13)CCCC2            0.93
19  CC(C)(C)OC(=O)N[C@@H](Cc1c[nH]c2ccccc12)C(=O)NCCCCCNc1c2c(nc3ccccc13)CCCC2            0.75
20  N[C@@H](Cc1ccccc1)C(=O)NCCCCCNc1c2c(nc3ccccc13)CCCC2            0.42
21  COC(=O)[C@H](Cc1ccccc1)NCCCCCNc1c2c(nc3ccccc13)CCCC2            0.54
22  CC(C)(C)OC(=O)N[C@@H](Cc1c[nH]c2ccccc12)C(=O)NCCCCNc1c2c(nc3ccccc13)CCCC2            0.93
23  N[C@@H](Cc1c[nH]cn1)C(=O)NCCCNc1c2c(nc3ccccc13)CCCC2           -0.21
24  COC(=O)[C@H](Cc1c[nH]c2ccccc12)NCCCCCNc1c2c(nc3ccccc13)CCCC2            0.47
25  N[C@@H](Cc1c[nH]c2ccccc12)C(=O)NCCCCNc1c2c(nc3ccccc13)CCCC2            0.49
26                             NCCc1c[nH]cn1            1.40
